# target system: Cytochrome P450 2D6 (Homo sapiens) (UniProt P10635)
# Sequence (P10635 whole entry, looked up): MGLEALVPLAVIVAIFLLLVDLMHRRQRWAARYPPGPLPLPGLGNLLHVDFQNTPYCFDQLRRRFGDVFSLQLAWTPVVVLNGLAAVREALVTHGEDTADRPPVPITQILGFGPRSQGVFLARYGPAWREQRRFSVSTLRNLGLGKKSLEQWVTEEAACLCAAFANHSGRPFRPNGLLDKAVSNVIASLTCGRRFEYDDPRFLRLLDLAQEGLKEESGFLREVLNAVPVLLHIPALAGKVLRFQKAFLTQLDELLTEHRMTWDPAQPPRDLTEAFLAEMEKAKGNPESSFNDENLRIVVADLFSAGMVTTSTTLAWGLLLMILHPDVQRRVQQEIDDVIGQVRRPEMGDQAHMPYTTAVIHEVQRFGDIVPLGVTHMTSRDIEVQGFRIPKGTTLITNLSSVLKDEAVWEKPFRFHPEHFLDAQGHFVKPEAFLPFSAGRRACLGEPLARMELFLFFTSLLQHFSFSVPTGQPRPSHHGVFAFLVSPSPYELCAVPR
# procedure text: Cytochrome panel assay with activity outcomes
# measurement conditions: recombinant CYP, pro-luciferin dealkylation, luminescence, p450-cyp2d6; series mostly up to 57.1 µM
Out of some 16,000 compounds screened, about 2,600 (16%) were called active. Another 20% or so got no clear call; they are omitted. The call rests on the fitted dose curve; in most records, active means well fitted curve in the direction sought with a large enough effect; inconclusive means small, poorly fitted or top-dose-only effect, or effect the other way; inactive means no such curve, though single readings can be large or run the other way. The list is a sample of the results.
Outcome codes: active, inactive

In [3]: df
Out[3]:
                                    molecule                             target_system  class_assignment
 0  CCOc1ccc(NC(=S)NC(=O)/C=C/c2ccc(C)cc2)c([N+](=O)[O-])c1  Cytochrome P450 2D6 (Homo sapiens) (UniProt P10635)          inactive
 1  C/C(CC(=O)NCc1ccco1)=N\NC(=O)Cc1ccc(Cl)cc1  Cytochrome P450 2D6 (Homo sapiens) (UniProt P10635)          inactive
 2    C/C(CC(=O)NCc1ccco1)=N\NC(=O)Cc1ccccc1  Cytochrome P450 2D6 (Homo sapiens) (UniProt P10635)          inactive
 3         Cc1cc(S(=O)(=O)NCCCN2CCOCC2)ccc1F  Cytochrome P450 2D6 (Homo sapiens) (UniProt P10635)            active
 4             CSc1ccc2nnc(-c3cccc(F)c3)n2n1  Cytochrome P450 2D6 (Homo sapiens) (UniProt P10635)          inactive
 5        N#Cc1ccc(-c2ccc(F)cc2)nc1Sc1ccccc1  Cytochrome P450 2D6 (Homo sapiens) (UniProt P10635)          inactive
 6             N[C@H](CCC(=O)NCC(=O)O)C(=O)O  Cytochrome P450 2D6 (Homo sapiens) (UniProt P10635)          inactive
 7  C[C@@H]1C[C@@H]2[C@H]3CCC4=CC(=O)C=C[C@]4(C)[C@]3(Cl)[C@@H](O)C[C@@]2(C)[C@@]1(O)C(=O)CO  Cytochrome P450 2D6 (Homo sapiens) (UniProt P10635)          inactive
 8  CCOC(=O)c1sc(N(Cc2ccccc2)C(=O)CN2C(=O)CN(C)C2=O)nc1C  Cytochrome P450 2D6 (Homo sapiens) (UniProt P10635)          inactive
 9                   Cc1ccccc1Oc1ncnc2sccc12  Cytochrome P450 2D6 (Homo sapiens) (UniProt P10635)          inactive
10              NC(=O)N1c2ccccc2C=Cc2ccccc21  Cytochrome P450 2D6 (Homo sapiens) (UniProt P10635)          inactive
11                Cc1nn(C)cc1CNC(=O)CCC(=O)O  Cytochrome P450 2D6 (Homo sapiens) (UniProt P10635)          inactive
12  NC1(C(=O)O)CC(C(=O)O)C1 (stereo not drawn)  Cytochrome P450 2D6 (Homo sapiens) (UniProt P10635)          inactive
13  CN(C)c1ncc2nc(-c3ccc(F)cc3)c(=O)n(C3CC3)c2n1  Cytochrome P450 2D6 (Homo sapiens) (UniProt P10635)          inactive
14  CCOC(=O)c1cnn(CCOC(=O)C(C)(C)C)c1NC(=O)C(C)(C)C  Cytochrome P450 2D6 (Homo sapiens) (UniProt P10635)          inactive
15  COCCn1c(=O)c(C)nc2cnc(Nc3cccc(OC)c3)nc21  Cytochrome P450 2D6 (Homo sapiens) (UniProt P10635)          inactive
16  O=C(NC(=S)Nc1ccc(C(=O)N2CCOCC2)cc1)c1ccc([N+](=O)[O-])cc1  Cytochrome P450 2D6 (Homo sapiens) (UniProt P10635)          inactive
17      Cc1ccc(SCc2nnc(NC(=O)c3ccccc3)s2)cc1  Cytochrome P450 2D6 (Homo sapiens) (UniProt P10635)          inactive
18         N#C[C@H](Cc1ccc(O)cc1)c1ccc(O)cc1  Cytochrome P450 2D6 (Homo sapiens) (UniProt P10635)          inactive
19    FC(F)(F)c1cnc(/C=C/Nc2ccccc2Cl)c(Cl)c1  Cytochrome P450 2D6 (Homo sapiens) (UniProt P10635)          inactive
20        CCOC(=O)c1cnc(-n2nc(C)cc2C)nc1NCCO  Cytochrome P450 2D6 (Homo sapiens) (UniProt P10635)          inactive
21  CC1CCC2(CC1)N=C(N)Nc1nc3ccccc3n12 (stereo not drawn)  Cytochrome P450 2D6 (Homo sapiens) (UniProt P10635)            active
22  C[C@H]1C[C@@H]2[C@H]3CCC4=CC(=O)C=C[C@@]4(C)[C@@]3(Cl)[C@@H](O)C[C@]2(C)[C@]1(OC(=O)c1ccco1)C(=O)CCl  Cytochrome P450 2D6 (Homo sapiens) (UniProt P10635)            active

----------
# target system: Cytochrome P450 2D6 (Homo sapiens) (UniProt P10635)
# procedure text: Cytochrome panel assay with activity outcomes; on activity, negative = inhibition: on the % scale 0 is the no-effect control and ±100 the full control effect
# measurement conditions: recombinant CYP, pro-luciferin dealkylation, luminescence, p450-cyp2d6; series mostly up to 57.1 µM
In all, about 16,000 compounds went through this assay and about 2,600 (16%) were called active. Not shown: some 20% with an inconclusive outcome. Not all results are given here.
readout name: activity, negative = inhibition

>>> print(df.to_string())
                             compound_string                     readout_name                  endpoint_value
 0    O=C1NC(=O)[C@@](Cc2ccccc2)(c2cccnc2)N1  activity, negative = inhibition   1.34% [at 11.4 µM] (inactive)
 1                       CCSC[C@@H](N)C(=O)O  activity, negative = inhibition  -5.75% [at 11.4 µM] (inactive)
 2  CCCNC(=O)OC[C@@H]1O[C@H](CCON=C(C)C)C=C[C@@H]1Oc1ccc(OC)cc1  activity, negative = inhibition  -7.52% [at 11.4 µM] (inactive)
 3      CN[C@@H](c1ccncc1)[C@@H](NC)c1ccncc1  activity, negative = inhibition  -10.1% [at 11.4 µM] (inactive)
 4         Oc1ccc2ccccc2c1Cc1c(O)ccc2ccccc12  activity, negative = inhibition   3.09% [at 11.4 µM] (inactive)
 5                    NC(Cc1ccccc1)=NCC(=O)O  activity, negative = inhibition   9.41% [at 11.4 µM] (inactive)
 6                O=C(O)[C@@H](O)c1ccc(F)cc1  activity, negative = inhibition   4.43% [at 11.4 µM] (inactive)
 7  Cn1c(=O)c2[nH]c(COCc3nc4c([nH]3)c(=O)n(C)c(=O)n4C)nc2n(C)c1=O  activity, negative = inhibition   3.11% [at 11.4 µM] (inactive)
 8  C(=N/Nc1nnc2c(n1)[nH]c1ccccc12)/c1cccnc1  activity, negative = inhibition     -5% [at 11.4 µM] (inactive)
 9  CO[C@H]1COC(=O)[C@@H](CCSC)NC(=O)C/C=C\[C@@H](C)[C@H](OC)COC(=O)[C@@H](OCc2ccccc2)/C=C\[C@@H]1C  activity, negative = inhibition  -4.06% [at 11.4 µM] (inactive)
10  CN(C)Cc1cc(C(C)(C)C)ccc1-c1ccc(C(C)(C)C)cc1CN(C)C  activity, negative = inhibition    4.2% [at 11.4 µM] (inactive)
11           CC(C)(CCc1nc2ccccc2[nH]1)C(=O)O  activity, negative = inhibition  -1.31% [at 11.4 µM] (inactive)
12                O=C(Nc1cccc(Cl)c1)Nn1cnnc1  activity, negative = inhibition   8.42% [at 11.4 µM] (inactive)
13                 O=C(O)/C=C\C(=O)Nc1ccccn1  activity, negative = inhibition    7.8% [at 11.4 µM] (inactive)
14  c1ccc(C2=NN[C@@H]3c4ccccc4-c4ccccc4N3C2)cc1  activity, negative = inhibition  -17.6% [at 11.4 µM] (inactive)
15  CN(C)Cc1ccc(C(C)(C)C)cc1-c1cc(C(C)(C)C)ccc1CN(C)C  activity, negative = inhibition     -2% [at 11.4 µM] (inactive)
16  O=C(O)[C@@H]1[C@@H](C(=O)NCc2ccccn2)[C@@H]2C=C[C@@H]1O2  activity, negative = inhibition   8.57% [at 11.4 µM] (inactive)
17                     C=C(C)CN(CC#N)CC(=C)C  activity, negative = inhibition   5.94% [at 11.4 µM] (inactive)
18          CC(=O)N[C@H](Cc1ccc(O)cc1)C(=O)O  activity, negative = inhibition  -3.43% [at 11.4 µM] (inactive)
19  O=C(O)c1cc(N=Nc2ccc([N+](=O)[O-])cc2)ccc1O  activity, negative = inhibition  -8.54% [at 11.4 µM] (inactive)
20           Fc1cccc(F)c1C(Nc1nncs1)Nc1nncs1  activity, negative = inhibition   19.1% [at 11.4 µM] (inactive)
21           O=C(O)c1cc(-c2ccncc2)nc2ccccc12  activity, negative = inhibition   8.68% [at 11.4 µM] (inactive)
22  O=c1oc2cc(N=Cc3ccc4c(c3)OCO4)ccc2c2ccccc12  activity, negative = inhibition   4.96% [at 11.4 µM] (inactive)
23                         O=C(O)CCSC1=NCCN1  activity, negative = inhibition   15.4% [at 11.4 µM] (inactive)
